system: human colorectal cancer HCT116 cells; assay: Inhibitory effect on growth of human cancer cells (in vitro), WST-8; format: cell-based; details: Homo sapiens, HCT-116, 96 h, 96 hours culture
Please provide measured log10 IC50 for the entries that follow.
The base-10 logarithm of IC50, taken with IC50 in nM, is what appears here.

test_smiles=C=Cc1nnc(-c2[nH]c(C)c(C(=O)c3cccc(Br)c3)c2C)o1 endpoint_result=0.98
test_smiles=Cc1c(-c2nnn(CCO)n2)[nH]c(C(C)(C)O)c1C(=O)c1cccc(Br)c1 endpoint_result=2.39
test_smiles=Cc1[nH]c(-c2nnc(C3CC3)o2)c(C)c1C(=O)c1cccc(Br)c1 endpoint_result=-0.40
test_smiles=Cc1c(-c2nnn(CCO)n2)[nH]c(CO)c1C(=O)c1cccc(Br)c1 endpoint_result=1.64
test_smiles=Cc1c(-c2nnc(C3CC3)o2)[nH]c(C(F)F)c1C(=O)c1cccc(Br)c1 endpoint_result=2.20
test_smiles=CNC(=O)c1[nH]c(-c2nnn(CCOC(C)=O)n2)c(C)c1C(=O)c1ccc(OC)c(Br)c1 endpoint_result=2.98
test_smiles=COc1ccc(C(=O)c2c(/C=N\O)[nH]c(-c3nnn(CCOC(C)=O)n3)c2C)cc1Br endpoint_result=2.12
test_smiles=Cc1[nH]c(-c2nnn(CCO)n2)c(C)c1C(=O)c1cccc(CO)c1 endpoint_result=1.83

State its log10 IC50 on human colorectal cancer HCT116 cells: "Cc1nnc(-c2[nH]c(C)c(C(=O)c3cccc(Br)c3)c2C)o1" 0.46

Where these numbers come from: patent US20140343017A1
